Data origin, for the record: ChEMBL document CHEMBL1138291

protocol.notes: Half life in dog at 100 nmol/kg, po
Assay type: ADME, organism-based, Canis lupus familiaris
assay.context: in vivo
Listed molecules paired with reported half-life

- molecule: "CC(Cl)(Cl)C(NC(=O)c1ccc(Cl)cc1)NC(=NC#N)Nc1ccc(Cl)nc1 (configuration not stated)"
  half-life: "15 h"
- molecule: "CC(Cl)(Cl)C(NC(=O)c1cc(F)cc(F)c1)N/C(=N/C#N)Nc1ccc(C(F)(F)F)nc1 (configuration not stated)"
  half-life: "6.9 h"

###

Listed here are molecules together with their documented Tmax.
protocol.notes: Tmax in dog at 100 nmol/kg, po
Format: ADME, organism-based, Canis lupus familiaris
assay.context: in vivo

- molecule: "CC(Cl)(Cl)C(NC(=O)c1cc(F)cc(F)c1)N/C(=N/C#N)Nc1ccc(C(F)(F)F)nc1 (configuration not stated)"
  unit.abbreviation: "min"
  Tmax: 42
- molecule: "CC(Cl)(Cl)C(NC(=O)c1ccc(Cl)cc1)NC(=NC#N)Nc1ccc(Cl)nc1 (configuration not stated)"
  unit.abbreviation: "min"
  Tmax: 24

###

protocol.notes: Plasma clearance in dog at 10 nmol/kg, iv
Assay type: ADME, organism-based, Canis lupus familiaris

- compound: "CC(O)(C(=O)Nc1ccc(C(=O)c2ccccc2)cc1)C(F)(F)F (single isomer, unassigned)"
  unit.abbreviation: "mL/min/kg"
  clearance: 11.2

###

System: Portal vein
protocol.notes: Effect on rat portal vein
Assay type: functional, tissue-based
pEC50: −log10 of the molar value.

- compound: "CC(Cl)(Cl)C(NC(=O)c1ccc(Cl)cc1)N/C(=N/C#N)Nc1ccc(Cl)nc1 (stereo unspecified)"
  pEC50: 6.09

###

protocol.notes: Half life in dog at 10 nmol/kg, iv
Format: ADME, organism-based, Canis lupus familiaris
assay.context: in vivo

- compound: "CC(O)(C(=O)Nc1ccc(C(=O)c2ccccc2)cc1)C(F)(F)F (single isomer, unassigned) [ZD-6169]"
  half-life [h]: 1.9

###

# half-life per record follows
protocol.notes: Half life in dog at 100 nmol/kg, iv
Format: ADME, organism-based, Canis lupus familiaris
assay.context: in vivo

- molecule: "CC(Cl)(Cl)C(NC(=O)c1cc(F)cc(F)c1)N/C(=N/C#N)Nc1ccc(C(F)(F)F)nc1 (configuration not stated)"
  half-life, h: 5.5
- molecule: "CC(Cl)(Cl)C(NC(=O)c1ccc(Cl)cc1)NC(=NC#N)Nc1ccc(Cl)nc1 (configuration not stated)"
  half-life, h: 9.9
